- ASSAY DETAILS: MELAS cybrid and Rieske KO viability enhancers – cell-based, MELAS cybrids, Rieske KO mouse fibroblasts, CellTiter-Glo, primary screen (AID 1508586);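 note: z relative to plate mean and SD of compound and empty wells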
- REPORTED CONDITIONS: MELAS cybrid survival, low glucose, CellTiter-Glo 48 h; stronger effect = higher value
READOUT KIND: z-score

>>> print(df.to_string())
                                   compound  readout_kind  value_reported
0  Nc1nc(=O)n(C2CSC(CO)O2)cc1F (stereo not drawn)       z-score          -0.288
1  CC[C@@H]1NC(=O)[C@H]2CN(CCC(C)C)CCN2C1=O       z-score           0.225
2  Cc1cc(CN(C)C(=O)c2cc(-c3cnn(C(C)C)c3)nc3cc(F)ccc23)on1       z-score           -1.12
3  CC1=NN(c2ccc(C(=O)O)cc2)C(=O)C1=Cc1ccc(-c2cc(C)c(C)cc2[N+](=O)[O-])o1       z-score          -0.321
4  CCn1ncc(NC(=O)Cn2cc(-c3ncnc4ccsc34)cn2)n1       z-score          -0.432
5             COc1cc(N=C(N)N=C(N)N)cc(OC)c1       z-score           0.825
6  CC1(C)S[C@H]2C(NC(=O)C(N)c3ccc(O)cc3)C(=O)N2C1C(=O)O (stereo partly drawn)       z-score        -0.00212
7    CCc1nc(NC(=O)NC(c2ccccc2)c2ccccc2)nn1C       z-score          -0.352

* * *

- ASSAY DETAILS: growth inhibition, single agent or in combination, cell-based, chromothripsis tumors, cisplatin or BGB combos (AID 1671449);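 note: cells exposed for 96 hours; 0% = vehicle DMSO and 100% = killing by high DMSO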
- REPORTED CONDITIONS: LFS_MB_P medulloblastoma cells, measured here: combination with BGB IC40, at 0.05 µM
Non-standard residues stand in square brackets, D forms with d. Residues, ends and D or L forms follow the SMILES beside them. Dolaproine = CO[C@@H]([C@@H]1CCCN1)[C@@H](C)C(=O)O; Dil = CC[C@H](C)[C@H](NC)[C@@H](CC(=O)O)OC; NMeV = CN[C@H](C(=O)O)C(C)C
READOUT KIND: inhibition (%)

COMPOUND	VALUE REPORTED
CC[C@H](C)[C@@H]([C@@H](CC(=O)N1CCC[C@H]1[C@H](OC)[C@@H](C)C(=O)N[C@@H](Cc1ccccc1)C(=O)O)OC)N(C)C(=O)[C@@H](NC(=O)[C@@H](NC)C(C)C)C(C)C (H-[NMeV]V[Dil][Dolaproine]F-OH)	-31.6
CC(=O)C1(O)Cc2c(O)c3c(c(O)c2C(OC2CC(N)C(O)C(C)O2)C1)C(=O)c1ccccc1C3=O (configuration not stated)	-19.5
Cc1cn(C2CC(O)C(COP(=O)(O)OP(=O)(O)OP(=O)(O)O)O2)c(=O)[nH]c1=O (configuration not stated)	0.344
Cc1cc(C=CC#N)cc(C)c1Nc1ccnc(Nc2ccc(C#N)cc2)n1	-24.8
O=c1cc(-c2ccc(O)cc2)[nH]c(=S)[nH]1	-1.51
Cc1c(Br)cc(NCC(=O)N/N=C/c2cc([N+](=O)[O-])ccc2O)cc1Br	-25.9
CC1CN(c2c(F)c(N)c3c(=O)c(C(=O)O)cn(C4CC4)c3c2F)CC(C)N1 (configuration not stated)	-15.2
